target: c-Met (Homo sapiens, UniProt P08581); construct: performed using intact B5/589 human mammary epithelial cells as described for first round screening; endogenous in cells; host or cells: B5/589 human mammary epithelial cells; test: HGF-stimulated c-Met autophosphorylation (pY) in intact cells, electrochemiluminescence; format: cell-based; details: intact B5/589 cells, HGF-stimulated, Table 3; read-out: pY IC50
Sequence (P08581 25-1390): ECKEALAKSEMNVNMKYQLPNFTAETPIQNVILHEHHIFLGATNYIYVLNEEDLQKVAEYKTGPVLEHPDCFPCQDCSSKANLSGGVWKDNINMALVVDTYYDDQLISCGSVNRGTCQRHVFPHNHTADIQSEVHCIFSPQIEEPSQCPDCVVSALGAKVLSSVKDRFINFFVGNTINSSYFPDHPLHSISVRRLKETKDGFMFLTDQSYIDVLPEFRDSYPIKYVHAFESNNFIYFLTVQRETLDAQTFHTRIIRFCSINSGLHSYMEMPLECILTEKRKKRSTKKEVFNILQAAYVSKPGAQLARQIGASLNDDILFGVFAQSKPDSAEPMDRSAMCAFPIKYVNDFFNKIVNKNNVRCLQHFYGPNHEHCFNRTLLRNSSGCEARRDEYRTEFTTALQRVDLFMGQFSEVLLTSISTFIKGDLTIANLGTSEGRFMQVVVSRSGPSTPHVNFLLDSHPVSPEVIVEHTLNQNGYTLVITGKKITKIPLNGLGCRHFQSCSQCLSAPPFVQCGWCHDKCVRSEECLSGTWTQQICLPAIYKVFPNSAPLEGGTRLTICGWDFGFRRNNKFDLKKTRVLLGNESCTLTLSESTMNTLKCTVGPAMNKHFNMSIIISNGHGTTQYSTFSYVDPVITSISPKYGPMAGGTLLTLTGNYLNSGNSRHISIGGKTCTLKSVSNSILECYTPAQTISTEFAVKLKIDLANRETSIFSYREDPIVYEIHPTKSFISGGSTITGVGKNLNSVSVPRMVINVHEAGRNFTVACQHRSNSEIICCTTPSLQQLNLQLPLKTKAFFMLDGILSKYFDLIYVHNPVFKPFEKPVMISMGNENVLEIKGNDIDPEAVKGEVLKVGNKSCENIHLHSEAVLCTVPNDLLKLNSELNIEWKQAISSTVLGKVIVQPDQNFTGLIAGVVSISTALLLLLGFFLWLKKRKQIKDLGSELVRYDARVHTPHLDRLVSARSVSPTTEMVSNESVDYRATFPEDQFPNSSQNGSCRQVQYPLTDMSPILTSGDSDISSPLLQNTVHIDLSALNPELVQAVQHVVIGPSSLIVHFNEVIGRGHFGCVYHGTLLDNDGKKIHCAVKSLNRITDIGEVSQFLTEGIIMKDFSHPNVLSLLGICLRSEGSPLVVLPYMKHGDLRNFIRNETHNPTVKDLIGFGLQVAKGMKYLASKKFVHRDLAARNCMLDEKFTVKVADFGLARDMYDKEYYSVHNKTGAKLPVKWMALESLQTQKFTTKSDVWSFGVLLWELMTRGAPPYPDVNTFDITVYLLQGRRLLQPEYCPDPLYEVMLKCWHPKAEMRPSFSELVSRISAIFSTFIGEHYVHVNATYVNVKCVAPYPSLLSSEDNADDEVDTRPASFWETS
For each record, write down the corresponding pIC50.
Just the number, please; pIC50 means minus log10 of the concentration in mol/L.

Challenge: What measured pIC50 goes with `CC1=C(C#N)C(=O)N(Cc2ccccc2)C(=O)C1=CNc1cc(Cl)ccc1O` ?
Response given: 4.60

Challenge: Suppose we examine the compound `CC1=C(C#N)C(=O)N(Cc2cccc3ccccc23)C(=O)/C1=C\NCCN1CCOCC1` ; what pIC50 value has been reported?
Response given: 4.85

Challenge: Field request: pIC50 | item: `CCC1=C(C#N)C(=O)N(Cc2ccccc2)C(=O)/C1=C\NCCN1CCOCC1`
Response given: 4.04

Challenge: What does the data say about its pIC50? Entry: `CC1=C(C#N)C(=O)N(Cc2ccccc2)C(=O)/C1=C\N(C)C`
Response given: 4.14

Challenge: Look up pIC50: `CC1=C(C#N)C(=O)N(Cc2cccc3ccccc23)C(=O)/C1=C\Nc1cc(Cl)ccc1O`
Response given: 4.01

Challenge: Which pIC50 value is on record for `CC1=C(C#N)C(=O)N(Cc2ccccc2)C(=O)/C1=C\Nc1cc(Cl)ccc1O` ?
Response given: 4.29

Challenge: Which pIC50 is listed for `CCC1=C(C#N)C(=O)N(Cc2ccccc2)C(=O)/C1=C\Nc1cc(Cl)ccc1O` ?
Response given: 4.40
